# TARGET SYSTEM: Polyunsaturated fatty acid lipoxygenase ALOX15 (Homo sapiens) (UniProt P16050)
# Sequence (P16050 whole entry, looked up): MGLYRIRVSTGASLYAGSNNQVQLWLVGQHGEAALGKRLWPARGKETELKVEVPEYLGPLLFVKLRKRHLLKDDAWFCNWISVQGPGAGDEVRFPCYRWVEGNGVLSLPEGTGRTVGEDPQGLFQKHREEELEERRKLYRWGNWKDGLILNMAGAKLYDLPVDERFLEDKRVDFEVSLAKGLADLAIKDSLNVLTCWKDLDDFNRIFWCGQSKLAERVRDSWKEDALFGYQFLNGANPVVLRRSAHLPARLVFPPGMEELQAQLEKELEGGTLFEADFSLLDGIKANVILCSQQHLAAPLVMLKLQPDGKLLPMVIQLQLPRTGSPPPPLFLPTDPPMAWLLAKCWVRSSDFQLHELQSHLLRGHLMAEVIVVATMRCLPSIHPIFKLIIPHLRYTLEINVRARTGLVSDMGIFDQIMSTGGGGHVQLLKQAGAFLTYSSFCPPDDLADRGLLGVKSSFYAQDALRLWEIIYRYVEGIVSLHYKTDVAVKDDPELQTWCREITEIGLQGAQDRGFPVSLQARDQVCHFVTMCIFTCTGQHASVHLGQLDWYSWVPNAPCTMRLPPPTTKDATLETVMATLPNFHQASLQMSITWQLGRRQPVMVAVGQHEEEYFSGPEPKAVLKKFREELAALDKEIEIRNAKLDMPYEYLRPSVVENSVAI
# PROTOCOL: Cuvette-Based Assay fo Inhibitors of 15-hLO-1 (15-human lipoxygenase 1): Series 1 - Round 1
# STATED CONDITIONS: purified 15-hLO-1, cuvette UV 234 nm product formation
Calls of active or inactive are those of the source. Calls come from the whole dose curve.
For each record, write down the corresponding Potency.

### Prompt Tell me the measured Potency of O=C(OCC#CCSc1nnc(-c2cccc3ccccc23)o1)c1ccc(Cl)cc1 , please.
### Response 0.018 µM (active)

### Prompt Item under review: O=C(OCC#CCSc1nnc(-c2cccc3ccccc23)s1)c1cccs1 . Reported Potency?
### Response 25 µM (active)

### Prompt Item COc1ccc(C(=O)OCC#CCSc2nnc(-c3cccc4ccccc34)o2)cc1 has what recorded Potency?
### Response 0.022 µM (active)

### Prompt State the recorded Potency for this entry: O=C(OCC#CCSc1nnc(-c2cccc3ccccc23)o1)c1cnc[nH]1
### Response 1 µM (active)

### Prompt What measured Potency goes with O=C(OCC#CCSc1nnc(-c2cccc3ccccc23)o1)c1ccc(Br)cc1 ?
### Response 0.016 µM (active)

### Prompt Consider the molecule CC(C)Nc1oc(-c2cccc3ccccc23)nc1C#N and give its measured Potency.
### Response 0.19 µM (active)

### Prompt Any idea what Potency was measured for O=C(NCC#CCSc1nnc(-c2cccc3ccccc23)o1)c1cccs1 ?
### Response 1 µM (active)
